System: human venous endothelial cells (HUVECs)
procedure_summary: In vitro angiogenesis model (pseudotubule length of HUVECs on matrigel/collagen)
Format: cell-based
Parameters: concentration or dose not given beside the values
details: relative to FGF2; in vitro
assay_readout: % activation with respect to FGF2 (in vitro) (%)

[
  {
    "mol_smiles": "Cc1c(-c2cccc(OCC(=O)NCCCCCCNC(=O)COc3cccc(-c4c(C)c(C(=O)c5ccc6[nH]c(=O)n(CC(=O)O)c(=O)c6c5)n5ccccc45)c3)c2)c2ccccn2c1C(=O)c1ccc2[nH]c(=O)n(CC(=O)O)c(=O)c2c1",
    "target": "human venous endothelial cells (HUVECs)",
    "reported": 29
  },
  {
    "mol_smiles": "Cc1c(-c2ccc(OCCOCCOCCOc3ccc(-c4c(C)c(C(=O)c5ccc6[nH]c(=O)n(CC(=O)O)c(=O)c6c5)n5ccccc45)cc3)cc2)c2ccccn2c1C(=O)c1ccc2[nH]c(=O)n(CC(=O)O)c(=O)c2c1",
    "target": "human venous endothelial cells (HUVECs)",
    "reported": 74
  }
]
